// provenance: PubChem BioAssay AID1159580

# Assay Procedure: chemical genetic growth profiling, strain panel (AID 1159580);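 note: tested at 20 µM; growth read once vehicle control cultures reached saturation at 30 °C; 1 = growth at the plate median or of vehicle wells; lower values mean less growth of the strain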
# Measurement Parameters: S. cerevisiae deletion strains, growth OD, locus YKL085W, strain MDH1
The campaign covered roughly 5,500 compounds. About 2,000 (36%) were called active. Roughly 18% stayed inconclusive and do not appear here. Cut-off read from the data, not from the text of the source: active = normalized growth mostly below about 0.91 (no sharp cut-off); inconclusive = no clear call, values can overlap the other calls; inactive = mostly above about 0.92. This is one part of the list.
In this exercise, the only acceptable responses are y = active, n = inactive

Answered examples (5):
>>> print(df.to_string())
                                   molecule  group_label
0  CC(=O)O[C@]1(C(C)=O)CCC2C3C=C(C)C4=CC(=O)CCC4(C)C3CCC21C (some centres undefined)            y
1  CC(=O)O[C@]1(C(C)=O)CCC2C3C[C@H](C)C4=CC(=O)CC[C@]4(C)C3CC[C@@]21C (some centres undefined)            n
2  O=C(O)C1C(O)CCC2CN3CCc4c([nH]c5ccccc45)C3CC21 (centres undefined)            n
3  COc1cc(OC)c2c(c1)OC(c1ccccc1)CC2=O (centres undefined)            n
4                   CCCCOc1ccc(CC(=O)NO)cc1            n

Hey, what did the test say about "COc1ccc(-c2c(O)c3cc4c(c(CC=C(C)C)c3oc2=O)OC(C)(C)CC4)cc1" ? n

GET /call?item= "COc1c2c(c(CC=C(C)C)c3oc(=O)c(-c4ccc(O)cc4)c(O)c13)OC(C)(C)C=C2" returns the recorded outcome of this test. y

Call for entry "CC(C)N(C(=O)CCl)c1ccccc1" : n

So what was the verdict on CCCCCC(=O)O[C@]1(C(C)=O)CCC2C3CCC4=CC(=O)CC[C@]4(C)C3CC[C@@]21C (some centres undefined) in this test? n

What call does the record list for "COc1ccc2c(c1)OC[C@@H](Cc1ccc(OC)c(OC)c1)[C@@H]2O" ? n

Which outcome was entered for the molecule CC(=O)[C@H]1CCC2C3C[C@H](C)C4=CC(=O)CC[C@]4(C)C3[C@@H](O)C[C@@]21C (some centres undefined) in this test? n

Name the outcome recorded for COc1ccc(CC2c3cc(OC)c(OC)cc3CCN2C)cc1OC (centres undefined) in the assay. n

Outcome logged for "COc1c(CC=C(C)C)c2c(c3oc(=O)c(-c4ccc(OC(C)=O)cc4)c(OC(C)=O)c13)C=CC(C)(C)O2" in this assay: n

Hi, sorry to bother you, what did the test record for "OCc1ccccc1O[C@@H]1O[C@H](CO)[C@@H](O)[C@H](O)[C@H]1O" ? n

====

# Assay Procedure: chemical genetic growth profiling, strain panel (AID 1159580)
# Measurement Parameters: S. cerevisiae deletion strains, growth OD, locus YDR392W, strain spt3, hits give low values
Screen size: about 5,500 compounds; about 2,000 (36%) were called active. About 18% were inconclusive and are not listed. This is one part of the list.
Measure: normalized growth
Write the number on its own, no unit after it.

Worked cases, normalized growth given:
Compound	Obs Value
CC(C)(C)CC(C)(C)c1ccc(OCCOCC[N+](C)(C)Cc2ccccc2)cc1	0.0804
O=[N+]([O-])O[C@H]1CO[C@H]2[C@@H]1OC[C@H]2O[N+](=O)[O-]	0.91

// lookup normalized growth for CCC1(C)CC(=O)NC1=O (configuration not stated) 0.962

Quick one: normalized growth for "COc1ccc([C@@H]2CC(=O)c3c(O)cc(O)cc3O2)cc1O" ? 0.862

Suppose we examine the compound "O=C(O)c1cc(=O)c2ccc(Cl)cc2[nH]1" ; what normalized growth value has been reported? 1.07

====

# Assay Procedure: chemical genetic growth profiling, strain panel (AID 1159580)
# Measurement Parameters: S. cerevisiae deletion strains, growth OD, locus YHR094C, strain hxt1, hits give low values
Hit rate of the full screen: of about 5,500 compounds, about 2,000 (36%) were called active. About 18% were inconclusive and are not listed. The list shows a part of the results.
Measure: normalized growth

Worked examples, 3 compounds total:
Compound	Obs Value
COc1ccc2c(c1)C1(C)CCC(=O)CC1CC2 (configuration not stated)	0.984 (inactive)
CC1(C)C2CC[C@]3(C)C(C(=O)C=C4[C@@H]5C[C@@](C)(C(=O)O)CC[C@]5(C)CC[C@]43C)[C@@]2(C)CC[C@@H]1OC(=O)CCC(=O)O (some centres not stated)	0.987 (inactive)
COc1ccc2c(c1)OC[C@@H](Cc1ccc(OC)c(OC)c1)[C@H]2O	0.978 (inactive)

Name the reported normalized growth value associated with the compound "CCCCOc1ccc(C(=O)CCN2CCCCC2)cc1" 0.0833 (active)

// normalized growth lookup, key: "O=C(O)c1ccccc1OP(=O)(O)O" 0.991 (inactive)

====

# Assay Procedure: chemical genetic growth profiling, strain panel (AID 1159580)
# Measurement Parameters: S. cerevisiae deletion strains, growth OD, locus YMR307W, strain GAS1, hits give low values
About 2,000 (36%) of roughly 5,500 compounds were called active. Inconclusive results (about 18%) are left out. The list shows a part of the results.
Measure: normalized growth
// return just the number, without any unit appended

Molecule	normalized growth
COC(=O)[C@@H]1C(O)CC[C@H]2CN3CCc4c([nH]c5ccccc45)[C@@H]3C[C@@H]21 (stereo partly specified)	1
C1CCc2nnnn2CC1	1.01
COc1cc(C(O)C(=O)O)ccc1O (stereo unspecified)	0.989

Item CN1C2CC3C[C@H]1C(O3)C2O (stereo partly specified) has what recorded normalized growth? 0.99

Sample "Cc1c(O)cc(O)c2c(=O)c(-c3ccc(O)cc3)coc12" — what was its normalized growth? 0.993

Given the molecule "C=C(C)/C=C1/C=CC(=O)C(C)=C1" , what is its reported normalized growth? 0.147

====

# Assay Procedure: chemical genetic growth profiling, strain panel (AID 1159580)
# Measurement Parameters: S. cerevisiae deletion strains, growth OD, locus YDR150W, strain NUM1, hits give low values
Among all 5,500 compounds or so, about 2,000 (36%) were called active. Another 18% or so got no clear call; they are omitted. The list shows a part of the results.
Measure: normalized growth
Give the figure by itself; no unit, no explanation.

Compound	normalized growth
CCCC(=O)NCCc1c2n(c3ccc(OC)cc13)Cc1ccccc1-2	1

Query: normalized growth; subject: CC(=O)O[C@]1(C(C)=O)CCC2C3C=C(C)C4=CC(=O)CCC4(C)C3CCC21C (stereo partly specified) 0.993

State the recorded normalized growth for this entry: "COC(=O)c1c(C)[nH]c(C)c1C(C)=O" 1.01

====

# Assay Procedure: chemical genetic growth profiling, strain panel (AID 1159580);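 note: tested at 20 µM; growth read once vehicle control cultures reached saturation at 30 °C; 1 = growth at the plate median or of vehicle wells; lower values mean less growth of the strain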
# Measurement Parameters: S. cerevisiae deletion strains, growth OD, locus YIL125W, strain kgd1, hits give low values
The campaign covered roughly 5,500 compounds. About 2,000 (36%) were called active. Another 18% or so got no clear call; they are omitted. The list shows a part of the results.
Measure: normalized growth
API note: the answer field is a bare number with no unit suffix.

Worked cases, answers included:
Compound	Obs Value
NC(N)=NOCC[C@H](N)C(=O)O	0.992
CO[C@H]1C[C@H](O[C@H]2[C@H](C)[C@@H](OC3O[C@H](C)C[C@H](N(C)C)[C@H]3O)[C@@H](C)C[C@]3(CO3)C(=O)[C@H](C)[C@@H](O)[C@@H](C)[C@@H](C)OC(=O)[C@@H]2C)O[C@@H](C)[C@@H]1O (some centres undefined)	1
Cc1ccc(O)cc1	0.994

API: the following record is the query input.
What value of measured normalized growth is listed for "C/C=C(/C(=C/C)c1ccc(O)cc1)c1ccc(O)cc1" ? 0.858

====

# Assay Procedure: chemical genetic growth profiling, strain panel (AID 1159580);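 note: tested at 20 µM; growth read once vehicle control cultures reached saturation at 30 °C; 1 = growth at the plate median or of vehicle wells; lower values mean less growth of the strain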
# Measurement Parameters: S. cerevisiae deletion strains, growth OD, locus YDL134C, strain PPH21, hits give low values
Out of some 5,500 compounds screened, about 2,000 (36%) were called active. Roughly 18% stayed inconclusive and do not appear here. This is one part of the list.
Listed here are compounds together with their documented normalized growth.
Output spec: single numeric token, no unit.

Consider the compound "CCc1nc(N)nc(N)c1-c1ccc(Cl)cc1" and give its measured normalized growth. 1.01

Please report the recorded normalized growth for "COc1ccc(C(=O)c2ccccc2)c(O)c1" . 0.949

Return reported normalized growth; argument: "O=C(/C=C/C=C/c1ccc2c(c1)OCO2)N1CCCCC1" 0.944

Find the recorded normalized growth belonging to CCCCCC(C)N (stereo unspecified) and report it. 1.02

Fill blank: measured normalized growth of the compound O=C(O)C1CC([C@@H]2CCCCN2)CN2CCCCC12 (stereo partly specified) is ____. 1.1

Name the reported normalized growth value associated with the compound "CC(=O)Nc1cccc(-n2nnc(SCc3ccccc3)n2)c1" 0.988

====

# Assay Procedure: chemical genetic growth profiling, strain panel (AID 1159580);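 note: tested at 20 µM; growth read once vehicle control cultures reached saturation at 30 °C; 1 = growth at the plate median or of vehicle wells; lower values mean less growth of the strain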
# Measurement Parameters: S. cerevisiae deletion strains, growth OD, locus YHR129C, strain ARP1, hits give low values
The whole screen tested about 5,500 compounds, of which about 2,000 (36%) were called active. Another 18% or so got no clear call; they are omitted. The list shows a part of the results.
Measure: normalized growth
Field format: numeric only.

Some solved entries appear below for comparison.
In [3]: df
Out[3]:
                             molecule  obs_value
0                        Cc1ccc(O)cc1       1.03
1  COc1cc(O)c2c(=O)cc(C)oc2c1CC=C(C)C      0.919

# input for lookup
Look up normalized growth for this compound: "Cc1cc(=O)c2c(O)c(C)c(O)cc2o1" 1
